molecular target: Cannabinoid receptor 2 (Homo sapiens, UniProt P34972); experiment: Displacement of [H3]-CP-55940 from human recombinant CB2 receptor expressed in CHO cells
Sequence (P34972 whole entry): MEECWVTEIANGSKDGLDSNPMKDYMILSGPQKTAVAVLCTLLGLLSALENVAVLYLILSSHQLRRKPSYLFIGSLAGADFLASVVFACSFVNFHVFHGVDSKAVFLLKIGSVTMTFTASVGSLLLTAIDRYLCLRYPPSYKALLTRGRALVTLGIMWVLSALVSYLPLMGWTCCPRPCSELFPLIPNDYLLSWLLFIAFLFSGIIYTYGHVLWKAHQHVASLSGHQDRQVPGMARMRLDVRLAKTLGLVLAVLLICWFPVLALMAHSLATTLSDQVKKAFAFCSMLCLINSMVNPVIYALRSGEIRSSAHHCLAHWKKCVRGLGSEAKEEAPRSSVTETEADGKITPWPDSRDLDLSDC
REPORTED PROPERTY: Ki (nM)
A number alone suffices; assume nM.

**Q:** Recorded Ki for CCCCCn1c(C)c(C)cc(Oc2nc3ccccc3o2)c1=S , please?
**A:** 214

**Q:** Recorded Ki for CCCCn1c(C)c(C)cc(NC(=O)Cc2ccccc2)c1=O , please?
**A:** 1310

**Q:** Recorded Ki for CCCCCCn1c(C)c(C)cc(Oc2nc3ccccc3o2)c1=S , please?
**A:** 609

**Q:** Recorded Ki for CCCCn1c(C)c(C)cc(NC(=O)c2cccc(C)c2)c1=O , please?
**A:** 42

**Q:** Recorded Ki for CCCCn1ccc(C)c(Oc2nc3ccccc3o2)c1=S , please?
**A:** 235

###

target: Cannabinoid receptor 2 (Homo sapiens); assay: Displacement of [H3]-CP-55940 from human recombinant CB2 receptor expressed in CHO cells; assay type: cell-based
REPORTED PROPERTY: Ki

**Q:** Recorded Ki for CCCCn1c(C)c(C)cc(NC(=O)c2ccc3ccccc3c2)c1=O , please?
**A:** 0.768 µM

**Q:** Recorded Ki for CCCCn1c(C)c(C)cc(NC(=O)c2ccccc2F)c1=O , please?
**A:** 0.088 µM

**Q:** Recorded Ki for CCCCn1c(C)c(C)cc(Oc2nc3ccccc3o2)c1=O , please?
**A:** 0.976 µM

**Q:** Recorded Ki for CCCCn1c(C)c(C)cc(NC(=O)c2ccc(C)cc2)c1=O , please?
**A:** 0.072 µM

**Q:** Recorded Ki for CCCCn1c(C)c(C)cc(NC(=O)c2ccccc2)c1=O , please?
**A:** 0.089 µM

**Q:** Recorded Ki for CCCCn1cccc(Oc2nc3ccccc3o2)c1=S , please?
**A:** 0.49 µM

**Q:** Recorded Ki for CCCCn1c(C)c(C)cc(NC(=O)c2cccc3ccccc23)c1=O , please?
**A:** 0.012 µM

**Q:** Recorded Ki for CCCCn1c(C)c(C)cc(NC(C)=O)c1=O , please?
**A:** > 5 µM

**Q:** Recorded Ki for CCn1c(C)c(C)cc(Oc2nc3ccccc3o2)c1=S , please?
**A:** 3.85 µM

**Q:** Recorded Ki for CCCCn1cc(C)cc(Oc2nc3ccccc3o2)c1=S , please?
**A:** 0.236 µM

**Q:** Recorded Ki for CCCn1c(C)c(C)cc(Oc2nc3ccccc3o2)c1=S , please?
**A:** 0.276 µM

**Q:** Recorded Ki for CCN1C(=O)C(Sc2nc3ccccc3o2)c2ccccc2C1C (configuration not stated) , please?
**A:** 0.042 µM

###

target: UniProt:P21554; assay: Displacement of [H3]-CP-55940 from human recombinant CB1 receptor expressed in CHO cells
Sequence (P21554 whole entry, looked up): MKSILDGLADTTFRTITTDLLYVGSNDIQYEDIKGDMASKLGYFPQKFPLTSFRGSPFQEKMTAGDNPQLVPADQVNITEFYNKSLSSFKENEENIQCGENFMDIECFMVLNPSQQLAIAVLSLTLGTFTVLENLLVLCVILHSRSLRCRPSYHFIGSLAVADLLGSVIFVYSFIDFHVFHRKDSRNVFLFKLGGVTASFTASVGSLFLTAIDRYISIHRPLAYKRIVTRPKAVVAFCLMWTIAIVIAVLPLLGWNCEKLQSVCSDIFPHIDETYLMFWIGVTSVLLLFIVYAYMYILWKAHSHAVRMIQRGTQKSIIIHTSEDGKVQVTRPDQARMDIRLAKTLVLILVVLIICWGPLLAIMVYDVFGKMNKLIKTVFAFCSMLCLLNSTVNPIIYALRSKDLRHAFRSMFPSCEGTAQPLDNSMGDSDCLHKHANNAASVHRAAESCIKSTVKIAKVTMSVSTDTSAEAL
REPORTED PROPERTY: log10 of Ki (log10 of the value in nM)
Use the decimal logarithm of Ki (nM).

**Q:** Recorded log10 of Ki for CCCCn1c(C)c(C)cc(NC(=O)c2ccccc2Cl)c1=O , please?
**A:** 2.59

**Q:** Recorded log10 of Ki for CCCCn1c(C)c(C)cc(NC(=O)c2ccccc2)c1=O , please?
**A:** 3.14

**Q:** Recorded log10 of Ki for CCCCn1c(C)c(C)cc(NC(=O)c2ccc(C)cc2)c1=O , please?
**A:** 2.93

**Q:** Recorded log10 of Ki for CCCCn1c(C)c(C)cc(NC(=O)c2cccc3ccccc23)c1=O , please?
**A:** 1.28

**Q:** Recorded log10 of Ki for CCCCn1c(C)c(C)cc(NC(=O)c2cccc(C)c2)c1=O , please?
**A:** 2.54

**Q:** Recorded log10 of Ki for CCCCn1c(C)c(C)cc(NC(=O)c2ccccc2F)c1=O , please?
**A:** 2.79

**Q:** Recorded log10 of Ki for CCCCn1c(C)c(C)cc(NC(=O)c2ccccc2C)c1=O , please?
**A:** 2.59

Where do the numbers come from? From ChEMBL document CHEMBL2346633.
